target-or-test-system: GST tagged LXRbeta LBD (ligand binding domain) (Homo sapiens)
assay-info: LanthaScreen TR-FRET Liver X Receptor Coactivator Assay, LXR beta-LBD
assay-conditions: Inflection Point (potency), co-activator recruitment, relative to reference T0901317; read-out: LXR beta IP
metric-name: pEC50
Friendly reminder that pEC50 comes from taking -log10 of the concentration in mol/L.

Sure, the documented pEC50 for CN(C)C(=O)c1ccc(N2CCC(C3CCN(C(=O)C4(c5cc(F)ccc5F)CCC4)CC3)CC2)cc1Cl is 6.43

# compound CN(C)C(=O)c1ccc(N2CCC(C3CCN(C(=O)C(O)(C4CC4)C(F)(F)F)CC3)CC2)cc1Cl (single isomer, unassigned) [Example A-8] ; its pEC50 = 6.61

Looking up CC(C)C(O)(C(=O)N1CCC(C2CCN(c3ccc(C(=O)N(C)C)c(F)c3)CC2)CC1)C(F)(F)F (centres unmarked) , I see its pEC50 listed as 6.40

Summary for this compound, CN(C)C(=O)c1ccc(N2CCC(C3CCN(C(=O)C(O)(c4ccccc4)C4CCC4)CC3)CC2)cc1Cl (centres unmarked) : pEC50 is 6.89

Lookup result for CN(C)C(=O)c1ccc(N2CCC(C3CCN(C(=O)C(F)(F)c4ccccc4Cl)CC3)CC2)cc1Cl ; measured pEC50: 7.66

For this compound ( O=C(c1ccc(N2CCC(C3CCN(C(=O)[C@](O)(c4ccccc4)C(F)(F)C(F)(F)F)CC3)CC2)cc1Cl)N1CCCC1 ), measured pEC50 is 6.98

Quick note, pEC50 for CN(C)C(=O)c1ccc(N2CCC(C3CCN(C(=O)C(C)(C)c4ccccc4Cl)CC3)CC2)cc1Cl landed at 7.82

So for CC1(C)CCN(C(=O)c2ccc(N3CCC(C4CCN(C(=O)[C@](O)(c5ccccc5)C(F)(F)F)CC4)CC3)cc2Cl)C1 , the logged pEC50 turned out to be 6.70

###

target-or-test-system: GST tagged LXRbeta LBD (ligand binding domain) (Homo sapiens, UniProt P55055)
Construct: purchased Invitrogen pv4658.pps
Sequence (P55055 222-460 limits assumed): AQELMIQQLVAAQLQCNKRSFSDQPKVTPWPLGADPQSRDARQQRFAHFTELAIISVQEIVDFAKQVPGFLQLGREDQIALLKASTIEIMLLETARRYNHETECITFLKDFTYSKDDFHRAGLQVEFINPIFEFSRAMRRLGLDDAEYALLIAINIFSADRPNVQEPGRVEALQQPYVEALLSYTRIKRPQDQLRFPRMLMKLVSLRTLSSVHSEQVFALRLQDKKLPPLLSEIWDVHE
assay-info: LanthaScreen TR-FRET Liver X Receptor Coactivator Assay, LXR beta-LBD
Format: biochemical
assay-conditions: activity at max dose (efficacy), relative to reference T0901317; read-out: LXR beta act @ max dose (%)
metric-name: Emax (%)
Enter your answer as a number in %; do not include the unit.

Noted for CCN(C)C(=O)c1ccc(N2CCC(C3CCN(C(=O)[C@](O)(c4ccccc4)C(F)(F)F)CC3)CC2)cc1Cl : its Emax reads 114

Given item CC(C)N(C)C(=O)c1ccc(N2CCC(C3CCN(C(=O)[C@](O)(c4ccccc4)C(F)(F)F)CC3)CC2)cc1Cl , the value recorded as its Emax is 95

Reported Emax for CN(C)C(=O)c1ccc(N2CCC(C3CCN(C(=O)C(O)(C(C)(C)C)C(F)(F)F)CC3)CC2)cc1Cl (racemic) [Example A-4] was 104

###

Give Emax for every item shown.
target-or-test-system: GST tagged LXRbeta LBD (ligand binding domain) (Homo sapiens)
Construct: purchased Invitrogen pv4658.pps
assay-info: LanthaScreen TR-FRET Liver X Receptor Coactivator Assay, LXR beta-LBD
Assay type: biochemical
assay-conditions: activity at max dose (efficacy), relative to reference T0901317; read-out: LXR beta act @ max dose (%)
Give the quantity in %, number only.

Record summary for CN(C)C(=O)c1ccc(N2CCC(C3CCN(S(=O)(=O)c4ccccc4Cl)CC3)CC2)cc1Cl : reported Emax = 122

Form field Emax, entry CN(C)C(=O)c1ccc(N2CCC(C3CCN(C(=O)C(O)(c4ccccc4)C(F)(F)C(F)(F)C(F)(F)F)CC3)CC2)cc1Cl (centres unmarked) : 75

// recorded Emax for CN(C)C(=O)c1ccc(N2CCC(C3CCN(C(=O)C4(c5ccc(F)cc5)CCC4)CC3)CC2)cc1Cl : 81

# Emax of CN(C)C(=O)c1ccc(N2CCC(C3CCN(C(=O)C45CC(C4)C5)CC3)CC2)cc1Cl = 93

Reported Emax ( O=C(c1ccc(N2CCC(C3CCN(C(=O)[C@](O)(c4ccccc4)C(F)(F)F)CC3)CC2)cc1Cl)N1CC(O)C1 ) = 74

Entry CN(C)C(=O)c1ccc(N2CCC(C3CCN(C(=O)OCc4c(Cl)cccc4Cl)CC3)CC2)cc1Cl ; Emax = 131

// recorded Emax for Cc1ccc(F)c(C(=O)N2CCC(C3CCN(c4ccc(C(=O)N(C)C)c(Cl)c4)CC3)CC2)c1F : 85

Emax reported for this compound CCCC(O)(C(=O)N1CCC(C2CCN(c3ccc(C(=O)N(C)C)c(Cl)c3)CC2)CC1)C(F)(F)F (centres unmarked) : 109

Note to self: Emax recorded for CN(C)C(=O)c1ccc(N2CCC(C3CCN(C(=O)C(O)(C(F)(F)F)C4(C)CC4)CC3)CC2)cc1Cl (centres unmarked) was 119

Lookup result for CC(C)C(O)(C(=O)N1CCC(C2CCN(c3ccc(C(=O)N(C)C)cc3Cl)CC2)CC1)C(F)(F)F (centres unmarked) ; measured Emax: 118

// Emax value for COc1cccc(C2(C(=O)N3CCC(C4CCN(c5ccc(C(=O)N(C)C)c(Cl)c5)CC4)CC3)CCC2)c1 : 100

###

Assign EC50 to each entry below.
target-or-test-system: GST tagged LXRalpha LBD (ligand binding domain) (Homo sapiens, UniProt Q13133)
Sequence (Q13133 209-447 limits assumed): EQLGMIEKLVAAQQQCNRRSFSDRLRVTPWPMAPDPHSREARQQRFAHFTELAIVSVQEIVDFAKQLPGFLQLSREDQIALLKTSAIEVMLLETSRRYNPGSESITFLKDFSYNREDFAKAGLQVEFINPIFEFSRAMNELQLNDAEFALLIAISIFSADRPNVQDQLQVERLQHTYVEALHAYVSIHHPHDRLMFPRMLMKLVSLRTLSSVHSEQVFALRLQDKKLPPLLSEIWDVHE
assay-info: LanthaScreen TR-FRET Liver X Receptor Coactivator Assay, LXR alpha-LBD
assay-conditions: Inflection Point (potency), co-activator recruitment, relative to reference T0901317; read-out: LXR alpha IP
Express your answer in nM, writing the number without its unit.

// compound CN(C)C(=O)c1ccc(N2CCC(C3CCN(C(=O)c4c(F)cccc4F)CC3)CC2)nc1Cl , assay GST tagged LXRalpha LBD (ligand binding domain) (Homo sapiens, UniProt Q13133), EC50 value: 885

// EC50 (GST tagged LXRalpha LBD (ligand binding domain) (Homo sapiens, UniProt Q13133)) for CC(C)CC(O)(C(=O)N1CCC(C2CCN(c3ccc(C(=O)N(C)C)c(Cl)c3)CC2)CC1)C(F)(F)F (stereo not drawn) [Example A-89] = 1220

Case CN(C)C(=O)c1ccc(N2CCC(C3CCN(C(=O)[C@@](O)(c4ccccc4)C(F)(F)C(F)(F)F)CC3)CC2)cc1Cl (single isomer, unassigned) , GST tagged LXRalpha LBD (ligand binding domain) (Homo sapiens, UniProt Q13133), EC50 recorded as 620

I looked up CC(C)C(O)(C(=O)N1CCC(C2CCN(c3cc(Cl)c(C(=O)N(C)C)c(Cl)c3)CC2)CC1)C(F)(F)F (stereo not drawn) and its EC50 for GST tagged LXRalpha LBD (ligand binding domain) (Homo sapiens, UniProt Q13133) was 1350

// returns EC50 for CC(C)C(O)(C(=O)N1CCC(C2CCN(c3ccc(C(=O)N(C)C)c(Cl)c3)CC2)CC1)C1CC1 (stereo not drawn) with GST tagged LXRalpha LBD (ligand binding domain) (Homo sapiens, UniProt Q13133); value = 1040

Case CC(C)C(O)(C(=O)N1CCC(C2CCN(c3ccc(C(=O)N4CCOCC4)c(Cl)c3)CC2)CC1)C(F)(F)F (stereo not drawn) , GST tagged LXRalpha LBD (ligand binding domain) (Homo sapiens, UniProt Q13133), EC50 recorded as 1190

###

target-or-test-system: GST tagged LXRalpha LBD (ligand binding domain) (Homo sapiens)
assay-info: LanthaScreen TR-FRET Liver X Receptor Coactivator Assay, LXR alpha-LBD
assay-conditions: Inflection Point (potency), co-activator recruitment, relative to reference T0901317; read-out: LXR alpha IP
// boundary case: EC50 equal to 2000 nM maps to False; strictly smaller maps to True

Data request: Lab note: confirm whether the reported EC50 for this compound is below 2000 nM, equality not counting. compound: CCC1CCCN1C(=O)c1ccc(N2CCC(C3CCN(C(=O)[C@](O)(c4ccccc4)C(F)(F)F)CC3)CC2)cc1Cl (stereo partly shown) [Example E-30]
Data returned: True

Data request: Please let me know if Cc1ccccc1C1(C(=O)N2CCC(C3CCN(c4ccc(C(=O)N(C)C)c(Cl)c4)CC3)CC2)CCC1 [Example A-75] shows EC50 below 2000 nM.
Data returned: True

Data request: Please indicate whether the reported EC50 of CN(C)C(=O)c1ccc(N2CCC(C3CCN(S(=O)(=O)c4c(Cl)cccc4Cl)CC3)CC2)cc1Cl [Example A-104] is strictly below 2000 nM.
Data returned: False

Data request: Consider the compound CN(C)C(=O)c1ccc(N2CCC(C3CCN(C(=O)[C@](O)(c4ccccc4)C(F)(F)C(F)(F)F)CC3)CC2)cc1Cl (single isomer, unassigned) [Example A-20] . Is its EC50 strictly less than 2000 nM?
Data returned: True

Data request: Is EC50 strictly under 2000 nM for the entry CN(C)C(=O)c1ccc(N2CCC(C3CCN(C(=O)C(C)(C)c4ccc(O)cc4)CC3)CC2)cc1Cl [Example A-58] ?
Data returned: False

Data request: Dear reviewer, please state whether CC(C)C(O)(C(=O)N1CCC(C2CCN(c3ccc(C(=O)N(C)C)c(Cl)c3)CC2)CC1)C(C)C [Example A-109] has EC50 strictly beneath 2000 nM.
Data returned: False

Data request: Hello, I'm reviewing records and need to know if EC50 of CN(C)C(=O)c1ccc(N2CCC(C3CCN(C(=O)C(O)(C(C)(C)C)C(F)(F)F)CC3)CC2)cc1Cl (racemic) [Example A-4] is below 2000 nM. Could you check?
Data returned: True

Data request: Field: below-cutoff. Rule: recorded EC50 strictly less than 2000 nM. Subject: Cc1ccc(F)c(C(=O)N2CCC(C3CCN(c4ccc(C(=O)N(C)C)c(Cl)c4)CC3)CC2)c1F [Example A-38]
Data returned: False

Data request: In the record for C=C(C)C(O)(C(=O)N1CCC(C2CCN(c3ccc(C(=O)N(C)C)c(Cl)c3)CC2)CC1)C(F)(F)F (stereo not shown) [Example A-31] , is EC50 less than 2000 nM?
Data returned: True

Data request: Field: below-cutoff. Rule: recorded EC50 strictly less than 2000 nM. Subject: CC(C)C(O)(C(=O)N1CCC(C2CCN(c3ccc(C(=O)N(C)C)c(Cl)n3)CC2)CC1)C(C)C [Example B-2]
Data returned: True

Data request: Lab log: compare recorded EC50 with 2000 nM; is it strictly lower for CN(C)C(=O)c1ccc(N2CCC(C3CCN(C(=O)C(O)(c4cccc(F)c4)C(F)(F)F)CC3)CC2)cc1Cl (stereo not shown) [Example A-95] ?
Data returned: True

Data request: Is 2000 nM strictly greater than the compound's reported EC50? compound: CCCCN(C)C(=O)c1ccc(N2CCC(C3CCN(C(=O)[C@](O)(c4ccccc4)C(F)(F)F)CC3)CC2)cc1Cl [Example E-59]
Data returned: False

Data request: Hello, is EC50 of the following compound strictly smaller than 2000 nM? CN(C)C(=O)c1ccc(N2CCC(C3CCN(C(=O)C(O)(C4CC4)C(F)(F)F)CC3)CC2)cc1Cl (single isomer, unassigned) [Example A-8]
Data returned: True

Data request: I'd appreciate it if you could check whether CN(C)C(=O)c1ccc(N2CCC(C3CCN(C(=O)C(O)(C(F)(F)F)C(F)(F)F)CC3)CC2)cc1Cl [Example A-35] has EC50 smaller than 2000 nM.
Data returned: True

Data request: Please state whether EC50 is below 2000 nM for O=C(c1ccc(N2CCC(C3CCN(C(=O)[C@](O)(c4ccccc4)C(F)(F)F)CC3)CC2)cc1Cl)N1CC(c2cccnc2)C1 [Example E-43]
Data returned: False

Data request: Criterion: EC50 strictly below 2000 nM. Is it met by CN(C)C(=O)c1ccc(N2CCC(C3CCN(C(=O)C4(c5cc(F)cc(F)c5)CCCC4)CC3)CC2)cc1Cl [Example A-79] ?
Data returned: False

Data request: In the record for CC(C)(C(=O)N1CCC(C2CCN(c3cccc(S(C)(=O)=O)c3)CC2)CC1)c1ccccc1 [Example D-8] , is EC50 less than 2000 nM?
Data returned: False

Data request: Please check: EC50 for CN(C)C(=O)c1ccc(N2CCC(C3CCN(C(=O)C4(c5ccccc5)CCCC4)CC3)CC2)cc1Cl [Example A-40] , strictly under 2000 nM or not?
Data returned: True

Data request: Item O=C(c1ccc(N2CCC(C3CCN(C(=O)[C@](O)(c4ccccc4)C(F)(F)F)CC3)CC2)cc1Cl)N1CC(F)C1 [Example E-45] : EC50 beneath 2000 nM, strictly?
Data returned: True

Data request: Is EC50 strictly under 2000 nM for the entry CN(C)C(=O)c1ccc(N2CCC(C3CCN(C(=O)[C@](O)(c4ccccc4)C(F)(F)F)CC3)CC2)cc1Cl [Example A-13] ?
Data returned: True

Data request: For this compound, is EC50 lower than 2000 nM? CC[C@](O)(C(=O)N1CCC(C2CCN(c3ccc(C(=O)N(C)C)c(Cl)c3)CC2)CC1)C(F)(F)F (single isomer, unassigned) [Example A-42]
Data returned: False
